# protocol: Inhibition of PDGFR
pIC50: −log10 of the molar value.
metric: pIC50

structure as smiles: O=C1NCCc2[nH]c(-c3ccncc3)cc21
metric: pIC50
test value: < 5.00

###

# target or system: Mitogen-activated protein kinase 11 (Homo sapiens)
# Sequence (Q15759 whole entry): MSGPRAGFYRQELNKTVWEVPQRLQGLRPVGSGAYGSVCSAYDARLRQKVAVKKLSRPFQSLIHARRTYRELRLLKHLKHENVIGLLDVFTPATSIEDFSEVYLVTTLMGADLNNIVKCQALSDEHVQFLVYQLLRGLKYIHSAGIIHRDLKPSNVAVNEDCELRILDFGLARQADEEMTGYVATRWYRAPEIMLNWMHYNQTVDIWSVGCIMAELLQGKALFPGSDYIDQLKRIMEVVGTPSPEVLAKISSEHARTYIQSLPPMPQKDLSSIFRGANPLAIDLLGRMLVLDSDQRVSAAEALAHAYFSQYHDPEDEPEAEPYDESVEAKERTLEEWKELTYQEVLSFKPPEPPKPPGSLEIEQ
# protocol: Inhibition of P38beta
pIC50: −log10 of the molar value.

structure as smiles: O=C1NCCc2[nH]c(-c3ccncc3)cc21
target or system: Mitogen-activated protein kinase 11 (Homo sapiens)
pIC50: < 5.00

###

The following molecules are shown together with reported pIC50 values.
# System: MCF7
# protocol: Antiproliferative activity against human MCF7 cells expressing p53 gene after 72 hrs by proliferative assay
# Type: functional, cell-based
# test conditions: MCF7, 72 h
pIC50: −log10 of the molar value.
metric: pIC50

structure as smiles: O=c1[nH]cc(F)c(=O)[nH]1
target or system: MCF7
test value: 4.57

structure as smiles: Nc1ccn([C@@H]2O[C@H](CO)[C@@H](O)C2(F)F)c(=O)n1
target or system: MCF7
test value: 7.10

###

# target or system: Serine/threonine-protein kinase Nek6 (Homo sapiens)
# Sequence (Q9HC98 whole entry): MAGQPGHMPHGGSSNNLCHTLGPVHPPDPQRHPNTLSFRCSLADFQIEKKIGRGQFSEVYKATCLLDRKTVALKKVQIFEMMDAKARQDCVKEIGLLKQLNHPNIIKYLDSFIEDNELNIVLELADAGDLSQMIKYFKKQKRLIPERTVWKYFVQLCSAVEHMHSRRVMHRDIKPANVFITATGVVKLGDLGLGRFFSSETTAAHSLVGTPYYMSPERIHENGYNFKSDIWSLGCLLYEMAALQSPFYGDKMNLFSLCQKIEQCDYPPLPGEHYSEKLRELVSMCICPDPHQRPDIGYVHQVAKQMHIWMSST

structure as smiles: O=C1NCCc2[nH]c(-c3ccncc3)cc21
IC50: > 10 µM

###

# System: U2OS
# protocol: Antiproliferative activity against human U2OS cells expressing p53 gene after 72 hrs by proliferative assay
# Type: functional, cell-based
metric: IC50 (nM)

molecule: O=c1[nH]cc(F)c(=O)[nH]1 [FLUOROURACIL]
metric: IC50
unit text: nM
test value: 13200
//
molecule: O=C1NCCc2[nH]c(-c3ccncc3)cc21
metric: IC50
unit text: nM
test value: 1490
//
molecule: Nc1ccn([C@@H]2O[C@H](CO)[C@@H](O)C2(F)F)c(=O)n1 [GEMCITABINE]
metric: IC50
unit text: nM
test value: 90.7

###

# protocol: Antiproliferative activity against p53 deficient human A2780/E6 cells after 72 hrs by proliferative assay
# Format: functional, cell-based
# test conditions: A2780/E6, 72 h
metric: IC50 (µM)

molecule: O=c1[nH]cc(F)c(=O)[nH]1 [FLUOROURACIL]
test value: 38.7
//
molecule: Nc1ccn([C@@H]2O[C@H](CO)[C@@H](O)C2(F)F)c(=O)n1 [GEMCITABINE]
test value: 0.0026
//
molecule: O=C1NCCc2[nH]c(-c3ccncc3)cc21
test value: 1.5

###

# Test system: Mus musculus
# protocol: AUC in SCID mouse carrying human HL60 cells at 30 mg/kg, iv after 10 hrs
# Type: ADME, organism-based, HL-60
# Design: time < 10 hr, dose 30 mg/kg, route intravenous
# test conditions: in vivo
metric: AUC (µM·h)

structure as smiles: O=C1NCCc2[nH]c(-c3ccncc3)cc21
metric: AUC
test value: 71

###

# target or system: Protein kinase C beta type (Homo sapiens)
# Sequence (P05771 whole entry): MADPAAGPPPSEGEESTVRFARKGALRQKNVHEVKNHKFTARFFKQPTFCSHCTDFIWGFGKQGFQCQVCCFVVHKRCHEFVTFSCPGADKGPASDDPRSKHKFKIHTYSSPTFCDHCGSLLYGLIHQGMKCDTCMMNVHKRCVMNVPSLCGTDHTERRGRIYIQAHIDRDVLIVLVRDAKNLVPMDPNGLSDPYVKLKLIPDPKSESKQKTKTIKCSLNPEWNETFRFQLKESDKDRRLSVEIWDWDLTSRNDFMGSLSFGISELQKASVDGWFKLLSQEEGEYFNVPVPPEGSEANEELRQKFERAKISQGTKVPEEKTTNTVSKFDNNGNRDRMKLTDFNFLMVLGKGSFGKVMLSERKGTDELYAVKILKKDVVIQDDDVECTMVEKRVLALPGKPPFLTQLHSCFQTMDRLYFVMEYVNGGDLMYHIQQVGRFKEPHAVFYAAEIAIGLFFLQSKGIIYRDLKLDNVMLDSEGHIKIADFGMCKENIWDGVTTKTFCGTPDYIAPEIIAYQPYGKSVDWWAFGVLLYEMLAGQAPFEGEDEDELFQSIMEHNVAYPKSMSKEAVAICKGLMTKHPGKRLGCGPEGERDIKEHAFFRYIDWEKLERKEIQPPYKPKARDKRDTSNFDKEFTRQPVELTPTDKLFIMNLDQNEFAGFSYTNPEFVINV
pIC50: −log10 of the molar value.

structure as smiles: O=C1NCCc2[nH]c(-c3ccncc3)cc21
pIC50: < 5.00

###

# System: HCT-15
# protocol: Antiproliferative activity against human HCT15 cells expressing p53 gene after 72 hrs by proliferative assay
# Format: functional, cell-based
# test conditions: HCT-15, 72 h
The following compounds are shown together with reported IC50 values.

structure as smiles: O=c1[nH]cc(F)c(=O)[nH]1
IC50, µM: 18.2
--
structure as smiles: O=C1NCCc2[nH]c(-c3ccncc3)cc21
IC50, µM: 3.81
--
structure as smiles: Nc1ccn([C@@H]2O[C@H](CO)[C@@H](O)C2(F)F)c(=O)n1
IC50, µM: 0.0099
